Listed here: items and their measured IC50.
- System: HEK293FT cells
- assay_details: Survival assay (MTT), HEK293FT
- Assay type: cell-based
- run_conditions: Homo sapiens, 72 h, Normal, Kidney, MTT
- Description: Cells were passed between 70 and 90% confluence. Cells were incubated with the drugs for 72 hours. The present inventors further investigated the extent to which these compounds kill normal human cells; low cytotoxicity against normal human cells is advantageous property for anti-cancer agents. The cytotoxicity of these compounds in various normal human cell lines was therefore investigated (Table 3). Cells were grown and the survival assay was performed as described above (Materials and Methods).

Below, 2 molecules whose answers are already recorded.
molecule: Nc1nc(=O)n([C@H]2C[C@H](O)[C@@H](CO)O2)cc1CO [2d5hmC, 5-hydroxymethyl-2′-deoxycytidine]
measure_name: IC50
readout_value: > 25 µM
--
molecule: Cn1nnc2c(C(N)=O)ncn2c1=O [Temozolomide, reference compound]
measure_name: IC50
readout_value: > 25 µM

# ---- query molecule ----
So what's the measured IC50 for this one? "Nc1nc(=O)n([C@H]2C[C@H](O)[C@@H](CO)O2)cc1C=O"
> 25 µM

----------
- Test system: HeLa cells
- assay_details: Survival assay (MTT), HeLa
- run_conditions: Homo sapiens, HeLa
measure_name: pIC50
// pIC50 here means minus log10 of the molar concentration (mol/L)

Tell me reported pIC50 for "Nc1nc(=O)n([C@H]2C[C@H](O)[C@@H](CO)O2)cc1C=O" , tested with HeLa cells.
6.12

----------
- Test system: NCI-N87 cells
- assay_details: Survival assay (MTT), NCI-N87
- Type: cell-based, human
- run_conditions: Homo sapiens; NCI-N87, Gastric Carcinoma; 72 hours, MTT
Listed here: items and their measured IC50.

molecule: Nc1nc(=O)n([C@H]2C[C@H](O)[C@@H](CO)O2)cc1CO [2d5hmC, 5-hydroxymethyl-2′-deoxycytidine]
IC50: > 25 µM
--
molecule: Nc1nc(=O)n([C@H]2C[C@H](O)[C@@H](CO)O2)cc1C=O
IC50: 0.806 µM
--
molecule: Cn1nnc2c(C(N)=O)ncn2c1=O [Temozolomide, reference compound]
IC50: > 25 µM

# ---- query molecule ----
So what's the measured IC50 for this one? Nc1nc(=O)n([C@H]2C[C@H](O)[C@@H](CO)O2)cc1C(=O)O [2d5caC, 5-carboxy-2′-deoxycytidine, reference compound]
> 25 µM

----------
- Tested on: NCI-N87 cells
- assay_details: Survival assay (MTT), NCI-N87
- Assay type: cell-based, human
- run_conditions: NCI-N87, Gastric Carcinoma; 72 hours, MTT
measure_name: IC50

Tell me reported IC50 for O=c1[nH]cc(F)c(=O)[nH]1 [5fU, 5-flurouracil, reference compound] , tested with NCI-N87 cells.
1.52 µM

----------
Listed here: items and their measured IC50.
- Tested on: CB152 cells
- assay_details: Survival assay (MTT), CB152
- Type: cell-based, human
- run_conditions: Homo sapiens, CB152, Glioma, Grade IV, 72 hours
- Protocol: Cells were passed between 70 and 90% confluence. Cells were incubated with the drugs for 72 hours.

Below, 2 compounds whose answers are already recorded.
compound: Nc1nc(=O)n([C@H]2C[C@H](O)[C@@H](CO)O2)cc1CO [2d5hmC, 5-hydroxymethyl-2′-deoxycytidine]
readout_value: > 100 µM
//
compound: Nc1nc(=O)n([C@H]2C[C@H](O)[C@@H](CO)O2)cc1C=O
readout_value: > 100 µM

# ---- query compound ----
So what's the measured IC50 for this one? Cn1nnc2c(C(N)=O)ncn2c1=O [Temozolomide, reference compound]
> 100 µM

----------
- Tested on: G26 cells
- assay_details: Survival assay (MTT), G26
- Assay type: cell-based, human
- run_conditions: G26, Glioma, Grade IV, 72 hours
- Procedure: Cells were passed between 70 and 90% confluence. Cells were incubated with the drugs for 72 hours.
measure_name: IC50 (µM)
Answer in µM, number only, no unit symbol.

So what's the measured IC50 for this one? O=c1[nH]cc(F)c(=O)[nH]1 [5fU, 5-flurouracil, reference compound]
7.12

----------
- System: MCF-7 cells
- assay_details: Survival assay (MTT), MCF-7
- Format: cell-based, human
- run_conditions: Homo sapiens, MCF7; MCF-7; Tables 6 and 7, unit inferred
measure_name: pIC50
// pIC50 here means minus log10 of the molar concentration (mol/L)

So what's the measured pIC50 for this one? Nc1nc(=O)n([C@H]2C[C@H](O)[C@@H](CO)O2)cc1C=O [2d5fC, 5-formyl-2′-deoxycytidine]
6.06

----------
- Tested on: 22Rv1 cells
- assay_details: Survival assay (MTT), 22Rv1
- Assay type: cell-based, human
- run_conditions: Homo sapiens, 22Rv1, 22Rv1; Tables 6 and 7, unit inferred
pIC50: −log10 of the molar value.
measure_name: pIC50

compound: Nc1nc(=O)n([C@H]2C[C@H](O)[C@@H](CO)O2)cc1C=O
pIC50: ≤ 4.60

# ---- query compound ----
So what's the measured pIC50 for this one? Nc1nc(=O)n([C@H]2C[C@H](O)[C@@H](CO)O2)cc1CO [2d5hmC, 5-hydroxymethyl-2′-deoxycytidine]
≤ 4.60

----------
- Test system: MRC5 cells
- assay_details: Survival assay (MTT), MRC5
- Assay type: cell-based, human
- run_conditions: Homo sapiens, MRC5, MRC5; Tables 6 and 7, unit inferred
pIC50: −log10 of the molar value.
measure_name: pIC50

molecule: Nc1nc(=O)n([C@H]2C[C@H](O)[C@@H](CO)O2)cc1C=O [2d5fC, 5-formyl-2′-deoxycytidine]
pIC50: ≤ 4.60

# ---- query molecule ----
So what's the measured pIC50 for this one? Nc1nc(=O)n([C@H]2C[C@H](O)[C@@H](CO)O2)cc1CO [2d5hmC, 5-hydroxymethyl-2′-deoxycytidine]
≤ 4.60

----------
- Test system: HAP1 cells
- assay_details: Survival assay (MTT), HAP1
- Type: cell-based, human
- run_conditions: Homo sapiens, HAP1, 72 h, HAP1, Chronic Myelogenous Leukemia (CML); 72 hours, MTT
pIC50: −log10 of the molar value.
measure_name: pIC50

So what's the measured pIC50 for this one? Nc1nc(=O)n([C@H]2C[C@H](O)[C@@H](CO)O2)cc1C=O [2d5fC, 5-formyl-2′-deoxycytidine]
< 4.60

----------
- Tested on: U87-MG cells
- assay_details: Survival assay (MTT), U87-MG
- run_conditions: Homo sapiens, U-87 MG, 72 h, U87-MG, Glioma, Grade IV, MTT
pIC50: −log10 of the molar value.
measure_name: pIC50

Below, 5 compounds whose answers are already recorded.
compound: Nc1nc(=O)n([C@H]2C[C@H](O)[C@@H](CO)O2)cc1C(=O)O [2d5caC, 5-carboxy-2′-deoxycytidine, reference compound]
pIC50: < 4.60

compound: Nc1nc(=O)n([C@H]2C[C@H](O)[C@@H](CO)O2)cc1Br [5-bromo-2′-deoxycytidine, reference compound]
pIC50: < 4.60

compound: Nc1nc(=O)n([C@H]2C[C@H](O)[C@@H](CO)O2)cc1Cl [5-chloro-2′-deoxycytidine, reference compound]
pIC50: < 4.60

compound: Cn1nnc2c(C(N)=O)ncn2c1=O [Temozolomide, reference compound]
pIC50: < 4.60

compound: Nc1nc(=O)n([C@H]2C[C@H](O)[C@@H](CO)O2)cc1C=O
pIC50: 6.48

# ---- query compound ----
So what's the measured pIC50 for this one? Nc1nc(=O)n([C@H]2C[C@H](O)[C@@H](CO)O2)cc1I [5-iodo-2′-deoxycytidine, reference compound]
< 4.60

----------
- Tested on: HeLa cells
- assay_details: Survival assay (MTT), HeLa
- run_conditions: HeLa, Cervical Adenocarcinoma; 72 hours, MTT
measure_name: IC50

So what's the measured IC50 for this one? O=c1[nH]cc(F)c(=O)[nH]1 [5fU, 5-flurouracil, reference compound]
> 25 µM

----------
Listed here: items and their measured pIC50.
- System: U937 cells
- assay_details: Survival assay (MTT), U937
- Assay type: cell-based, human
- run_conditions: Homo sapiens, U-937; U937, Lymophoma; 72 hours, MTT
// pIC50 here means minus log10 of the molar concentration (mol/L)

compound: Nc1nc(=O)n([C@H]2C[C@H](O)[C@@H](CO)O2)cc1C=O
pIC50: 6.02

So what's the measured pIC50 for this one? Cn1nnc2c(C(N)=O)ncn2c1=O [Temozolomide, reference compound]
4.88

----------
- System: G166 cells
- assay_details: Survival assay (MTT), G166
- Type: cell-based, human
- run_conditions: Homo sapiens, G166, Glioma, Grade IV, 72 hours
measure_name: IC50

Below, 2 molecules whose answers are already recorded.
molecule: Nc1nc(=O)n([C@H]2C[C@H](O)[C@@H](CO)O2)cc1CO [2d5hmC, 5-hydroxymethyl-2′-deoxycytidine]
IC50: > 100 µM

molecule: Cn1nnc2c(C(N)=O)ncn2c1=O [Temozolomide, reference compound]
IC50: > 100 µM

# ---- query molecule ----
So what's the measured IC50 for this one? Nc1nc(=O)n([C@H]2C[C@H](O)[C@@H](CO)O2)cc1C=O [2d5fC, 5-formyl-2′-deoxycytidine]
> 100 µM
